All figures here come from PubChem BioAssay AID1030.

molecular target: Aldehyde dehydrogenase 1A1 (Homo sapiens); experiment: qHTS Assay for Inhibitors of Aldehyde Dehydrogenase 1 (ALDH1A1); details: Purified ALDH1A1, NADH fluorescence, propionaldehyde substrate; series mostly up to 75.3 µM
Out of some 220,000 compounds screened, about 16,000 (7.3%) were called active. Not shown: some 25% with an inconclusive outcome. Calls follow the shape of the dose curve; as a rule, active = well fitted inhibition curve with a large enough effect (not every such curve was filed as active); inconclusive = small, poorly fitted or top-dose-only effect, or another doubt; inactive = no such curve, though single readings can be large or run the other way. The entries come from a sample that favours actives as a whole.
Outcomes: active, inactive

INSERT INTO assay_data (compound, study_system, class_name) VALUES
  ('C[C@@H](O)c1nc2ccccc2n1N', 'Aldehyde dehydrogenase 1A1 (Homo sapiens)', 'inactive'),
  ('S=c1[nH]nc(-c2ccccc2)n1/N=C/c1c[nH]c2ccccc12', 'Aldehyde dehydrogenase 1A1 (Homo sapiens)', 'inactive'),
  ('CSc1nc(C)cc(SC(C(C)=O)C(=O)Nc2ccccc2)n1 (configuration not stated)', 'Aldehyde dehydrogenase 1A1 (Homo sapiens)', 'active'),
  ('CCOc1cccc(/C=N/N2C(=O)CSC2=S)c1O', 'Aldehyde dehydrogenase 1A1 (Homo sapiens)', 'active'),
  ('O=C(Nc1cccc(C(F)(F)F)c1)c1ccc(N2CCNCC2)c([N+](=O)[O-])c1', 'Aldehyde dehydrogenase 1A1 (Homo sapiens)', 'inactive'),
  ('CCN(c1ccccc1)S(=O)(=O)c1cccc(C(=O)O)c1', 'Aldehyde dehydrogenase 1A1 (Homo sapiens)', 'inactive'),
  ('CC(NC(=S)NC1CCCCC1)C(c1ccccc1)N1CCOCC1 (configuration not stated)', 'Aldehyde dehydrogenase 1A1 (Homo sapiens)', 'inactive'),
  ('CN(CC(=O)NCCc1ccccn1)S(=O)(=O)c1ccc(Cl)cc1', 'Aldehyde dehydrogenase 1A1 (Homo sapiens)', 'inactive'),
  ('COc1ccc(/C=C(/CC(=O)Nc2ccc(C)cc2)c2nc3ccccc3s2)cc1', 'Aldehyde dehydrogenase 1A1 (Homo sapiens)', 'inactive'),
  ('C/C(=N\NC(=O)c1cccc(N2CCCC2=O)c1)c1ccc(N)cc1', 'Aldehyde dehydrogenase 1A1 (Homo sapiens)', 'inactive'),
  ('O=C(CCc1nnc(CCCCc2ccccc2)o1)NC(c1cccnc1)C(F)(F)F (configuration not stated)', 'Aldehyde dehydrogenase 1A1 (Homo sapiens)', 'inactive'),
  ('O=C(O)c1cccc(S(=O)(=O)Nc2ccc(O)cc2Sc2nc3ccccc3s2)c1', 'Aldehyde dehydrogenase 1A1 (Homo sapiens)', 'active'),
  ('COC(=O)[C@@H]1CC[C@H](C)[C@@H](c2ccc(C)cc2)N1C(=O)c1ccc(/C=N/O[C@H](C)c2cn([C@@H]3COC[C@H]3O)nn2)cc1', 'Aldehyde dehydrogenase 1A1 (Homo sapiens)', 'inactive'),
  ('CCOc1cccc(/C=N/NC(=S)NCCN2CCOCC2)c1O', 'Aldehyde dehydrogenase 1A1 (Homo sapiens)', 'inactive'),
  ('O=C(NCc1csc(-c2cccs2)n1)C1CC1', 'Aldehyde dehydrogenase 1A1 (Homo sapiens)', 'inactive'),
  ('COc1ccc(CCc2nnc(CCC(=O)NCc3cnn(-c4ccccc4C)c3)o2)cc1', 'Aldehyde dehydrogenase 1A1 (Homo sapiens)', 'inactive'),
  ('O=C(O)C1CCN(C(=O)c2cc(F)cc3c2OCOC3)CC1', 'Aldehyde dehydrogenase 1A1 (Homo sapiens)', 'inactive'),
  ('O=C(O)C1C2CC2CN1C(=O)c1ccc(Cl)cc1Cl (configuration not stated)', 'Aldehyde dehydrogenase 1A1 (Homo sapiens)', 'inactive'),
  ('COc1ccc(S(=O)(=O)Nc2ccc(O)c(Sc3nc4ccccc4s3)c2)cc1', 'Aldehyde dehydrogenase 1A1 (Homo sapiens)', 'active'),
  ('CC(Sc1nnc2c(n1)C1CCC2(C)C1(C)C)C(=O)Nc1ccccc1 (configuration not stated)', 'Aldehyde dehydrogenase 1A1 (Homo sapiens)', 'inactive'),
  ('CSc1nc(N(C)NC(=O)c2cccc(C)c2)c2ccccc2n1', 'Aldehyde dehydrogenase 1A1 (Homo sapiens)', 'inactive'),
  ('CCOc1ccccc1N=C1NC(=O)CS1', 'Aldehyde dehydrogenase 1A1 (Homo sapiens)', 'inactive');
